Listed next: entries and their corresponding inhibition.
target: Glucose transporter (Leishmania mexicana) (UniProt O61059); test: ST_JUDE_LEISH: Cytotoxicity at 2uM final concentration against transgenic Leishmania Mexicana promastigotes LmGT2 that are glucose transport deficient and complemented with the L. Mexicana glucose transporter 2. Activity is measured by DNA content using SYBR green in vitro; format: functional
Answer in %, number only, no unit symbol.

Molecule | Units Symbol | inhibition
O=C(NCCc1ccccc1)N(Cc1cccc(-c2ccc(CNC3CCCC3)cc2)c1)C1CCN(Cc2ccccc2)CC1 | % | 11.2
COc1ccc(S(=O)(=O)N(CCCN2CCN(C)CC2)Cc2csc(-c3ccc(CNCc4ccccc4)cc3)n2)cc1 | % | 1.67

Here's the next entry for you.
q: Name the recorded inhibition of the compound listed here: CCCN1CCN(c2cc(NCC)c3c4c(onc24)-c2ccccc2C3=O)CC1
a: 6.9

* * *

target: Solute carrier family 2, facilitated glucose transporter member 1 (Homo sapiens) (UniProt P11166); experiment: ST_JUDE_LEISH: Cytotoxicity at 2uM final concentration against transgenic Leishmania Mexicana promastigotes LmGLUT1 that are glucose transport deficient and complemented with the human glucose transporter GLUT1. Activity is measured by DNA content using SYBR green in vitro; type: functional
Sequence (P11166 whole entry): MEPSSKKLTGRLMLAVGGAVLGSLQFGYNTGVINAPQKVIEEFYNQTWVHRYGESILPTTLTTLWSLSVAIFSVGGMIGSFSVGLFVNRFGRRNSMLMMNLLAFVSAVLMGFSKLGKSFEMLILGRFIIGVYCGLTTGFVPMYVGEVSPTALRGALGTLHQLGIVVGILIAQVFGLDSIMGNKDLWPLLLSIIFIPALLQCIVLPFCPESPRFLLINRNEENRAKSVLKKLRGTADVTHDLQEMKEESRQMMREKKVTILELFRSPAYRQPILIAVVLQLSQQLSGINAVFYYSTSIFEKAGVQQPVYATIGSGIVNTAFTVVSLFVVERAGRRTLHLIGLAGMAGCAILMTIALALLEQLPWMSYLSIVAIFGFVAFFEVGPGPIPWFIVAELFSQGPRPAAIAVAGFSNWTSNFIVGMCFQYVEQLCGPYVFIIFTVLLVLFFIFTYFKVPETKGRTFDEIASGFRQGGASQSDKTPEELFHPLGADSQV
Readout Type: inhibition (%)
Your answer is read as %, so omit the unit and give the number.

Compound | inhibition [%]
CC(C)(C)Oc1ccc(C[C@@H]2NC3(C(=O)N(Cc4ccc(Cl)c(Cl)c4)c4ccccc43)C3C(=O)N(c4ccc(Br)cc4)C(=O)C32)cc1 (some centres undefined) | 4.6
COc1cccc(CC(=O)NC2CCN(c3ccnc4cc(Cl)ccc34)C2)c1 (centres undefined) | 0.02
CN1CCN(c2ccnc3cc4c(cc23)N(Cc2ccccc2)CC4)CC1 | -1.34
CC1c2cccc(O)c2CCN1CCc1ccc(Cl)c(Cl)c1 (centres undefined) | 12.5
Nc1nc(N)c2cc(S(=O)(=O)c3ccc4ccccc4c3)ccc2n1 | 10.7

q: Report inhibition for Cc1cc(-c2ccc(NC(=O)c3coc4ccc(N5CC(C)N(C)C(C)C5)cc34)cc2C)cc(C)n1 (centres undefined)
a: 2.55

q: Entry Cc1cc(N2CCCC2)nc(Nc2ccc(NC(=O)C(C)Oc3ccccc3)cc2)n1 (centres undefined) needs its inhibition filled in; supply it.
a: 10.6

q: Hello, please tell me recorded inhibition for this one: O=C(Nc1ccc(Cl)cc1)c1cccc(S(=O)(=O)NC2CCN(CC3CCCCC3)C2)c1 (centres undefined)
a: 9.12

q: Give the measured inhibition for Cc1cc2nc(-c3ccc(/C=C/C(=O)NC4CCN(Cc5ccccc5)CC4)cc3)[nH]c2cc1C
a: 0.58

* * *

biological target: Hexose transporter 1 (Plasmodium falciparum) (UniProt O97467); assay: ST_JUDE_LEISH: Cytotoxicity at 2uM final concentration against transgenic Leishmania Mexicana promastigotes LmPfHT that are glucose transport deficient and complemented with the Plasmodium falciparum hexose transporter. Activity is measured by DNA content using SYBR green in vitro; assay type: functional
Readout Type: inhibition
Put down the number, then write its unit next to it.

q: Look up inhibition of Cc1cccc2nc(-c3cccc(-c4cccc(NC(=O)NC5CC5c5ccccc5)c4)c3)[nH]c12 (stereo unspecified) and report it.
a: 2.2%

q: Give inhibition for the following compound: CN(CCNCc1ccc(-c2cccc(-c3nc4ccccc4[nH]3)c2)cc1)S(C)(=O)=O
a: 0.26%

* * *

molecular target: Solute carrier family 2, facilitated glucose transporter member 1 (Homo sapiens); assay: ST_JUDE_LEISH: Cytotoxicity at 2uM final concentration against transgenic Leishmania Mexicana promastigotes LmGLUT1 that are glucose transport deficient and complemented with the human glucose transporter GLUT1. Activity is measured by DNA content using SYBR green in vitro; assay type: functional
Recorded inhibition values for a group of compounds are listed next.
Dear colleague, please send the value followed by its unit.

The following compounds have reported results that may help.
Compound | System Name | inhibition
CN1CCCC1CCNCc1cccc(-c2cnc(N(C)C3CCCCC3)nc2)c1 (stereo not drawn) | Solute carrier family 2, facilitated glucose transporter member 1 (Homo sapiens) | 102%
O=C(Nc1cccc(F)c1)N1CCC(CN2CCOC(c3ccccc3)(c3ccccc3)C2)CC1 | Solute carrier family 2, facilitated glucose transporter member 1 (Homo sapiens) | 3.49%

Now turn to the next compound.
q: Entry O=c1c(Br)ccccc1Br needs its inhibition filled in; supply it.
a: 1.2%
